Target: T1, soluble form of GPC3 core protein (human, UniProt P51654 25-563)
T1 construct: not shown: His tag added to the C-terminus
T1 sequence (P51654 25-563 S495A/S509A, form in doubt): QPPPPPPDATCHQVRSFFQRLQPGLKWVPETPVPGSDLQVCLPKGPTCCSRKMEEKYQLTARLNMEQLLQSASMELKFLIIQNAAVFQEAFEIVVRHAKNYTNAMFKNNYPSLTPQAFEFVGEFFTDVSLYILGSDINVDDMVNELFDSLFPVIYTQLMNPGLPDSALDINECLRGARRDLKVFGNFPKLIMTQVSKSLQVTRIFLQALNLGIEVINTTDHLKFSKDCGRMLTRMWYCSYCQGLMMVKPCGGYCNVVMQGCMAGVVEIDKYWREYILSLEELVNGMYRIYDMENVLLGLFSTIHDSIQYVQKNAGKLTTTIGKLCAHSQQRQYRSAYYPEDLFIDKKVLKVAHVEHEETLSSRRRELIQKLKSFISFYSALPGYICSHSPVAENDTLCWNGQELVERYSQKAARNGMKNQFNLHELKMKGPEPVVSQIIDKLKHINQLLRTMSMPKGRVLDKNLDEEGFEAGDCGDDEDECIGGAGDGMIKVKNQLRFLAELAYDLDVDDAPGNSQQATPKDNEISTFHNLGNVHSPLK
Test: ELISA on plate coated with soluble GPC3 core protein
reported-endpoint: EC50 (nM)
Give the number; nM is assumed, so skip it.

M1E7 (antibody, human IgG1, kappa, V domains shown, Mouse monoclonal from hybridoma; also called M1E07) VH: EVQLQQSGPELVKPGASVKISCKASGYSFTGYYMHWVKQSPEKSLEWIGEINPSTGGTTYNQKFKAKATLTVDKSSSTAYMQLKSLTSEDSAVYYCARRGGLTGTSFFAYWGQGTLVTVSA VL: DVVMTQTPLSLSVTIGQPASISCKSSQSLLYSNGKTYLNWLQQRPGQAPKHLMYQVSKLDPGIPDRFSGSGSETDFTLKISRVEAEDLGVYYCLQSTYYPLTFGAGTKLELKR = 0.96
M5B9 (antibody, V domains shown, Mouse monoclonal from hybridoma) VH: EVQLQQSGTVLARPGASVKMSCKASGYTFTGYWMHWVKQRPGQGLEWIGAIYPGNSDTNYNQKFKGKAKLTAVTSASTAYMELSSLTNEDAAVYHCTRSGDLTGGLAYWGQGTLVTVSA VL: DIVMTQAAFSNPVTLGTSASISCRSSKSLLHSNGITYLYWFLQKPGQSPQLLIYQMSNLASGVPDRFSSSGSGTDFTLRISRVEAEDVGVYYCAQNLELPYTFGSGTKLEIK = 1.13

Would you kindly look at the next entry?
L9G11 (antibody, V domains shown, Mouse monoclonal from hybridoma) VH: QVQLQQPGAELVKPGASVKLSCKASGYTFTSYWMHWVKQRPGQGLEWIGTIDPSDSETHYNLQFKDTATLTVDKSSSTAYMQLSSLTSEDSAVYYCIRGAFYSSYSYWAWFAYWGQGTLVTVSA VL: DIVLTQSPTSLAVSLGQSVTISCRASESVEYYGTSLMQWYQQKPGQPPKLLIYGASNVESGVPARFSGSGSGTDFSLNIHPVEEDDIAMYFCQQSRKVPYTFGSGTKLEIK yielded EC50 of 0.62

Hello, the source for this data is patent US20100248359A1, in case you need it.
